The reported numbers originate from the supplement of paper PMC12042874.

# Protocol description: amyloid nucleation score (Sup35N fusion, yeast selection) (log enrichment); library NNK1; higher = more nucleation; inactive = no reads after selection;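 further: zero at mode of non-aggregating sequences after 7 days selection at 30°C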
Dear colleague, classification is by amyloid nucleation score, with ranges listed here: low-valued (below 0.03), mid-valued (0.03 to below 1), high-valued (1 or more)

Examples from the recorded data:
| Substance | Discrete label |
| --- | --- |
| IFAVHMLYSECTGSFRYHWS | mid-valued |
| MPIVKLTWLYTGVGAKPQVS | mid-valued |
| IGQFMVDWYNIGGREPVPGS | mid-valued |
| FTNRTIFFV | low-valued |

Query block: Band for the recorded amyloid nucleation score of ISDFAYWQILCRVSDIFKVQ ?
Result block: high-valued

Query block: Lab note: which band did RWCLVSGMILCSLLCVYSFN land in?
Result block: low-valued

Query block: Exam item: assign RWRKVGIKEGLIMLESGVSR to the correct category.
Result block: low-valued

Query block: Class? Entry: VMYEVVHVNDDRCEAWLLSR
Result block: low-valued

Query block: Band for TLCIVNIGSFVEDEKGDN ?
Result block: high-valued

Query block: Please indicate the class for DSFARYVGVLKRLARLSTYR based on its amyloid nucleation score.
Result block: mid-valued

Query block: Note: place this substance into its band. Item: TGRVFLLYAAQ
Result block: low-valued

###

// amyloid nucleation score lookup, one value per entry
# Protocol description: amyloid nucleation score (Sup35N fusion, yeast selection) (log enrichment); library NNK3; higher = more nucleation; inactive = no reads after selection
Just the number, please.

Field: example entries. Status: answers known.
| Seq | Measured value |
| --- | --- |
| IDLVVSQVWQSTGAVVALWH | -0.301 |
| PFVSVSVCTSLKGCSR | 1.8 |

Query block: Let me know recorded amyloid nucleation score for IMTVILSPLLTCNYFCCR , thanks.
Result block: 2.35

Query block: Please give the documented amyloid nucleation score of CQYRVTSYHSSWFFSEAMHP
Result block: -0.268

###

# Protocol description: amyloid nucleation score (Sup35N fusion, yeast selection) (log enrichment); library NNK3; higher = more nucleation; inactive = no reads after selection
Result type: amyloid nucleation score

| Seq | amyloid nucleation score |
| --- | --- |
| FIIDVLTMASTLGCSVQN | inactive |
| AEVHDDHPMGSDAHIYGTGG | inactive |
| NHWGSNWWLVYKVYSGGLLM | inactive |
| QYRDSYANSSQNPFHCFFNL | inactive |
| QHMSRYYVFLLNCIQCIMNG | 1.58 |

Query block: Find the measured amyloid nucleation score of FNTFVPRKYH and report it.
Result block: inactive

Query block: Determine its reported amyloid nucleation score: SITSFDFLINRVSMPSYNCG
Result block: inactive

###

# Protocol description: amyloid nucleation score (Sup35N fusion, yeast selection) (log enrichment); library NNK2; higher = more nucleation; inactive = no reads after selection
Result type: amyloid nucleation score
Could you respond with only the numeric value?

Below are worked cases with known answers.
| Substance | Measured value |
| --- | --- |
| WVSSIGGDWGMIYSLLQLYW | 0.205 |
| YMTEIANKRSPRACWIGERM | -0.156 |
| TFNVYTVSLDVCDYRGGHGL | 6.6 |
| MNYRCKYAQDTHLSEQSSQE | -0.799 |
| RYGPIWGYCNKLFWARCTQL | 0.2 |
| NLDVSYYVIYIKPGRYPV | 6.09 |
| EQKGSVTYCGYKMSDV | 4.97 |
| SVLSLFWLFTDFLVVSHDIL | -0.784 |

Query block: Return the recorded amyloid nucleation score value; entry: KSCYIAV
Result block: -0.066

Query block: For MGFSRTLYIRKDIFLFVLHL , write its amyloid nucleation score.
Result block: -0.759

Query block: Using known records, supply amyloid nucleation score for KILNCTGSQVKS
Result block: -0.032

Query block: Retrieve amyloid nucleation score measured for KSYLWASAAVEGNCYNPVNR and print it.
Result block: -0.195

Query block: Hello, please tell me recorded amyloid nucleation score for this one: DRAGLATLNSLELGDDGFLG
Result block: -1

Query block: Report measured amyloid nucleation score; entry is RSTNTRIIKLTKCAGPNRDE
Result block: 1.14
